Source listed as PubChem BioAssay (NCATS).

# protocol summary: Cell Viability - LYMP2-013 (AID 970);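 also: cells exposed to compound for 24 h at 37 °C; nearly all actives have a fitted effect of over 55% in size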
# reported conditions: LYMP2-013 lymphoblastoid cells viability; series mostly up to 92.2 µM
Results filed as inconclusive are left out. The source made the active and inactive calls. Calls follow the shape of the dose curve; as a rule, active = well fitted cell-killing curve with a large enough effect; inconclusive = small, poorly fitted or top-dose-only effect; inactive = flat fitted curve, though single readings scatter.
metric name: outcome

Sample answers from the record:
Tell me outcome reported for C=C(C)[C@H]1CC=C(C)C(=O)C1 inactive

Tell me outcome reported for CC1=CC(=O)CC(C)(C)C1(O)/C=C/C(C)=C\C(=O)O (stereo not given) inactive

Tell me outcome reported for COS(C)(=O)=O inactive

Tell me outcome reported for Cc1occc(=O)c1O inactive

***
Tell me outcome reported for CN(C)CCOC(c1ccccc1)c1ccccc1 (tested in a mixture with another compound) inactive
